method: Intrinsic clearance in human liver microsome at 2 uM
Type: ADME
condition_description: liver microsomes
Below, each entry is listed alongside its reported microsomal CLint at 2 µM.
readout_kind: microsomal CLint at 2 µM

> print(dat)
                               query.smiles         result
1  COC(=O)N[C@H](C(=O)NN(Cc1cccc(-c2cccnc2)c1)C[C@@](O)(Cc1ccccc1)C(=O)N[C@H]1c2ccccc2C[C@H]1O)C(C)(C)C  190 µL/min/mg
2  COC(=O)N[C@H](C(=O)NN(Cc1ccc(-c2cccnc2)cc1)C[C@@](O)(Cc1ccccc1)C(=O)N[C@H]1c2ccccc2C[C@H]1O)C(C)(C)C  154 µL/min/mg

---

// Human immunodeficiency virus type 1 protease (Human immunodeficiency virus 1) pKi records
pKi: −log10 of the molar value.
readout_kind: pKi

> print(dat)
                               query.smiles  recorded.number
1  COC(=O)N[C@H](C(=O)NN(Cc1cccc(-c2ccncc2)c1)C[C@@](O)(Cc1ccccc1)C(=O)N[C@H]1c2ccccc2C[C@H]1O)C(C)(C)C             7.03
2  COC(=O)N[C@H](C(=O)NN(Cc1ccc(-c2cnccn2)cc1)C[C@@](O)(Cc1ccccc1)C(=O)N[C@H]1c2ccccc2C[C@H]1O)C(C)(C)C             8.68
3  COC(=O)N[C@H](C(=O)NN(Cc1ccc(C#Cc2ccccc2)cc1)C[C@@](O)(Cc1ccccc1)C(=O)N[C@H]1c2ccccc2C[C@H]1O)C(C)(C)C             7.82
4  COC(=O)N[C@H](C(=O)NN(Cc1ccc(C#Cc2ccccn2)cc1)C[C@@](O)(Cc1ccccc1)C(=O)N[C@H]1c2ccccc2C[C@H]1O)C(C)(C)C             8.05
5  COC(=O)N[C@H](C(=O)NN(Cc1cccc(-c2cccnc2)c1)C[C@@](O)(Cc1ccccc1)C(=O)N[C@H]1c2ccccc2C[C@H]1O)C(C)(C)C             7.92
6  COC(=O)N[C@H](C(=O)NN(Cc1cccc(C#Cc2ccccn2)c1)C[C@@](O)(Cc1ccccc1)C(=O)N[C@H]1c2ccccc2C[C@H]1O)C(C)(C)C             7.66
7  COC(=O)N[C@H](C(=O)NN(Cc1ccc(-c2ccc3c(c2)OCO3)cc1)C[C@@](O)(Cc1ccccc1)C(=O)N[C@H]1c2ccccc2C[C@H]1O)C(C)(C)C             7.96
8  COC(=O)N[C@H](C(=O)NN(Cc1cccc(Br)c1)C[C@@](O)(Cc1ccccc1)C(=O)N[C@H]1c2ccccc2C[C@H]1O)C(C)(C)C             7.74
9  COC(=O)N[C@H](C(=O)NN(Cc1cccc(C#Cc2cccnc2)c1)C[C@@](O)(Cc1ccccc1)C(=O)N[C@H]1c2ccccc2C[C@H]1O)C(C)(C)C             7.74

---

method: Permeability in Caco-2 cells at 10 uM
Assay type: ADME, cell-based
condition_description: human, read-out: permeability
Below, each entry is listed alongside its reported Papp at 10 µM.
readout_kind: Papp at 10 µM (nm/s)

> print(dat)
                               query.smiles  recorded.number
1  COC(=O)N[C@H](C(=O)NN(Cc1ccc(-c2cccnc2)cc1)C[C@@](O)(Cc1ccccc1)C(=O)N[C@H]1c2ccccc2C[C@H]1O)C(C)(C)C              330
2  COC(=O)N[C@H](C(=O)NN(Cc1cccc(-c2cccnc2)c1)C[C@@](O)(Cc1ccccc1)C(=O)N[C@H]1c2ccccc2C[C@H]1O)C(C)(C)C              110
